- Assay system: Aurora kinase A (Homo sapiens)
- Sequence (O14965 whole entry): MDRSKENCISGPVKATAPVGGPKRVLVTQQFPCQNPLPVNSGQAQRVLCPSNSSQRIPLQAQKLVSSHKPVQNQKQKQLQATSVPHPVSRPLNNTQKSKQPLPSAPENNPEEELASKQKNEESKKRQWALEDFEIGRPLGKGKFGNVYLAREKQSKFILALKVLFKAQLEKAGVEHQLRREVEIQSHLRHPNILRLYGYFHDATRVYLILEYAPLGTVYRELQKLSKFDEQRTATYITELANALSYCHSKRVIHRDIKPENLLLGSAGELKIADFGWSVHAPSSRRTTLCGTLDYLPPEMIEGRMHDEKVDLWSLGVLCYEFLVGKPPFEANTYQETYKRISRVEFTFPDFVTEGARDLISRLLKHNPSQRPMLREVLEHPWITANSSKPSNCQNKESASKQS
- Test: Inhibition of recombinant AuroraA (unknown origin)
Endpoint name: IC50

INSERT INTO measurements (structure_notation, value_reported) VALUES
  ('CNc1ncc2c(/C=C/C(=O)N3CCC(OC)CC3)nn(Cc3cccc(C(F)(F)F)c3)c2n1', '1450 nM');

* * *

- Test: cells
- Assay setup: Homo sapiens, FLO-1, 120 h
- Description: Antiproliferative activity against human FLO-1 cells assessed as reduction in cell viability measured after 5 days by PrestoBlue reagent based fluorescence analysis
Endpoint name: EC50

INSERT INTO results (structure_notation, value_reported) VALUES
  ('Nc1ncnc2c1c(/C=C/C(=O)N1CCC(c3ccccc3)CC1)nn2CC1CCCC1', '~30 µM'),
  ('Nc1ncnc2c1c(/C=C/C(=O)N1CCCC1)nn2CC1CCCC1', '~30 µM'),
  ('CNc1ncc2c(/C=C/C(=O)N3CCC(OC)CC3)nn(CC3CCCC3)c2n1', '< 9 µM');

Where do these numbers come from? They come from ChEMBL document CHEMBL6134771.
